- TARGET OR SYSTEM: récepteurs β1 de l'oreillette gauche de cobaye (Cavia porcellus, UniProt H0W3H1)
- Construct: l'oreillette gauche de cobaye stimulée électriquement; from tissue; host or cells: guinea pig left atrium, electrically stimulated
- Sequence (H0W3H1 1-470): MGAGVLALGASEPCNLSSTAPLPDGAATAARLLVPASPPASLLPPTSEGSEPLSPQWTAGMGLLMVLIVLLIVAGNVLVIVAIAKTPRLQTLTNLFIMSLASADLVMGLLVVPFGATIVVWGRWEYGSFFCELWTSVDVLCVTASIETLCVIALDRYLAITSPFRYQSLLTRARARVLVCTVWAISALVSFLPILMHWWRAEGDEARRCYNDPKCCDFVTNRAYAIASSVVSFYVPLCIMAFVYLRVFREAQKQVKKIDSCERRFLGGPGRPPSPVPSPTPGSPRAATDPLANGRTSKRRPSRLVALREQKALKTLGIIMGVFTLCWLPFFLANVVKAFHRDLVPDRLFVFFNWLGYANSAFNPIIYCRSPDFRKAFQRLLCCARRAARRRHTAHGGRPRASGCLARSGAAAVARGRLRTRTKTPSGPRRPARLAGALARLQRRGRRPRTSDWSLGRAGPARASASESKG
- PROCEDURE DETAILS: Antagonism of the positive inotropic effect of isoprenaline on electrically stimulated isolated left atrium
- COND: β1; guinea-pig left atrium
- Source text: L'activité pharmacologique des composés de l'invention a été révélée par recherche d'une interférence avec les récepteurs adrénergiques β1, β2 et α in vitro, conformément aux protocoles expérimentaux ci-après. Récepteurs adrénergiques β1 : on recherche l'antagonisme de l'effet inotrope positif de l'isoprénaline sur les récepteurs β1 de l'oreillette gauche de cobaye stimulée électriquement. […]
RECORDED ENDPOINT: pD'2

Guide cases for pD'2, answers given:
CC(C(=O)c1ccc2c(c1)oc(=O)n2C)N1CCN(c2ccc(F)cc2)CC1 (stereo not shown) | 4,59 ± 0,61
C[C@@H]([C@H](O)c1ccc2c(c1)oc(=O)n2C)N1CCN(c2ccc(F)cc2)CC1 (relative stereo) | 4
Cn1c(=O)oc2cc(C(O)CN3CCC(Cc4ccccc4)CC3)ccc21 (stereo not shown) | 4,2

**Query** Which pD'2 value is on record for C[C@@H]([C@H](O)c1ccc2c(c1)oc(=O)n2C)N1CCC(Cc2ccccc2)CC1 (relative stereo) ?
**Result** 4,50 ± 0,21
